target: 5-HT2A receptor (recombinant human membrane, CHO cells) (Homo sapiens); construct: 1813092; test: radioligand receptor binding assay, [3H]-ketanserin displacement; settings: mean ± S.D.; 1 nM [3H]-ketanserin; assayed up to 100 or 30 μM
Sequence (P28223 whole entry): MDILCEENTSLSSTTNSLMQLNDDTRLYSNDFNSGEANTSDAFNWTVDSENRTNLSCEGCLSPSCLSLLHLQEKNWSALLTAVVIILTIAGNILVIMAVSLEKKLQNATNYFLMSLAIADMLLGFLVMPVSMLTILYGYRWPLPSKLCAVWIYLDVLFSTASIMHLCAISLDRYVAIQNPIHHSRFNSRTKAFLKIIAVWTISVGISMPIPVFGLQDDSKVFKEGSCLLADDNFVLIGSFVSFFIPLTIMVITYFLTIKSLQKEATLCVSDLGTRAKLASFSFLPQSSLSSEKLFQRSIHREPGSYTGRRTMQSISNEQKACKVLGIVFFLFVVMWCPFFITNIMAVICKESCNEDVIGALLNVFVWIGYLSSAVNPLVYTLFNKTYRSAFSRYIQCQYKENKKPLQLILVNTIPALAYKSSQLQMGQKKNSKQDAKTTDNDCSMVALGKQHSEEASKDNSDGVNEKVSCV
# IC50 values compiled below

Sample records with IC50:
CC(C)=C[C@H]1C[C@](C)(O)[C@@H]2[C@H]3CC[C@@H]4[C@@]5(C)CC[C@H](O[C@@H]6OC[C@H](O)[C@H](O[C@@H]7O[C@H](CO)[C@@H](O)[C@H](O)[C@H]7O)[C@H]6O[C@@H]6O[C@@H](CO)[C@H](O)[C@H]6O)C(C)(C)[C@@H]5CC[C@@]4(C)[C@@]34CO[C@@]2(C4)O1 [Bacopaside X, bacopaside X] = > 100 µM
CC(C)=CC1COC23CC4(CO2)C(CCC2C5(C)CCC(OC6OC(CO)C(O)C(OC7OC(CO)C(O)C(O)C7O)C6OC6OC(CO)C(O)C6O)C(C)(C)C5CCC24C)C3C1(C)O (stereo not drawn) [Bacopaside II, bacopaside II] = > 30 µM
CC(C)=C[C@@H]1CO[C@]23C[C@]4(CO2)[C@H](CC[C@@H]2[C@@]5(C)CC[C@H](O[C@@H]6OC[C@H](O)[C@H](O[C@@H]7O[C@H](CO)[C@@H](O)[C@H](O)[C@H]7O)[C@H]6O[C@@H]6O[C@@H](CO)[C@H](O)[C@H]6O)C(C)(C)[C@@H]5CC[C@]24C)[C@H]3[C@@]1(C)O = > 100 µM
CC(C)=CC1CC(C)(O)C2C3CCC4C5(C)CCC(O)C(C)(C)C5CCC4(C)C34COC2(C4)O1 (stereo not drawn) = > 30 µM

Entry under test: CC(C)=CC=CC(C)=CC1CCC2C3(C)CCC(O)C(C)(C)C3CCC2(C)C12COC(=O)C2 (stereo not drawn) . Its IC50 was 14.5 µM

Entry under test: CC(C)=C[C@H]1C[C@](C)(O)[C@@H]2[C@H]3CC[C@@H]4[C@@]5(C)CC[C@H](O[C@@H]6O[C@H](CO)[C@@H](O)[C@H](O[C@@H]7O[C@H](CO)[C@@H](O)[C@H](O)[C@H]7O)[C@H]6O[C@@H]6O[C@@H](CO)[C@H](O)[C@H]6O)C(C)(C)[C@@H]5CC[C@@]4(C)[C@@]34CO[C@@]2(C4)O1 [Bacoside A3, bacoside A3] . Its IC50 was > 100 µM
